Consider the following compounds and their measured remaining at 1.5 h, 100 µM readings.
protocolText: Metabolic stability in human liver microsomes assessed as parent compound remaining at 0.1 mM measured after 90 mins by LC/MS analysis
Type: ADME, Microsome
conditionDetails: read-out: Stability

{"substanceSmiles": "COc1ccc(S(=O)(=O)N(Cc2ccccc2CN([C@@H](C)C(=O)O)S(=O)(=O)c2ccc(OC)cc2)[C@@H](C)C(=O)O)cc1", "remaining at 1.5 h, 100 µM": "98.2%"}
{"substanceSmiles": "COc1ccc(S(=O)(=O)N(CC(=O)O)Cc2ccccc2CN(CC(=O)O)S(=O)(=O)c2ccc(OC)cc2)cc1", "remaining at 1.5 h, 100 µM": "97.7%"}
{"substanceSmiles": "COc1ccc(S(=O)(=O)N(CC(=O)O)c2ccc(N(CC(=O)O)S(=O)(=O)c3ccc(OC)cc3)c3ccccc23)cc1", "remaining at 1.5 h, 100 µM": "56.9%"}

###

targetOfAssay: Kelch-like ECH-associated protein 1 (Homo sapiens)
Sequence (Q14145 whole entry, the tested form may be a part): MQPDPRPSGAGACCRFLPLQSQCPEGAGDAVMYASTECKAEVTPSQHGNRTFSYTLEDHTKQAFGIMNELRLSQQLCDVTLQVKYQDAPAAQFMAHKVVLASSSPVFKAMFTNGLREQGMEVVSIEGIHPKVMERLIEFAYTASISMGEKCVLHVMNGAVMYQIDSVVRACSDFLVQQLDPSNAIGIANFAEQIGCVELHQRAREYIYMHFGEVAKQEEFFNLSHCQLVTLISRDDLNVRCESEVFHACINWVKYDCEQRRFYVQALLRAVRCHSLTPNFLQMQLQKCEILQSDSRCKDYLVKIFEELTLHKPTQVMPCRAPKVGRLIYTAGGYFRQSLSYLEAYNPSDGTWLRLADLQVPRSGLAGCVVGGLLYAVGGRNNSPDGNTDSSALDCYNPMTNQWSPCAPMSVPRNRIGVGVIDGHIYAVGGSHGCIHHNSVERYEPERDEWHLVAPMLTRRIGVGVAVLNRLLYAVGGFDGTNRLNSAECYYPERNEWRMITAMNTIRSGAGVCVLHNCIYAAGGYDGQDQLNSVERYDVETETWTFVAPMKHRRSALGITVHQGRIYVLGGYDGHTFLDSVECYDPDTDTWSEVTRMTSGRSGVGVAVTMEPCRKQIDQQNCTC
protocolText: Inhibition of FITC-LDEETGEFL-NH2 binding to recombinant human Keap1 Kelch domain (321 to 609 residues) expressed in Escherichia Coli BL21(DE3)pLysS cells centrifuged for 2 mins followed by 30 mins incubation under shaking condition by fluorescence polarization assay
observedProperty: IC50 (nM)

{"substanceSmiles": "COc1ccc(S(=O)(=O)N(CC(=O)O)Cc2ccccc2CN(CC(=O)O)S(=O)(=O)c2ccc(OC)cc2)cc1", "targetOfAssay": "Kelch-like ECH-associated protein 1 (Homo sapiens)", "unitsSymbol": "nM", "assayResult": 2300}
